A collection of compounds and their measured pEC50
System: BT474
Test: ATP luminescence proliferation assay, BT474
Type: cell-based, human
Details: Homo sapiens, BT-474; ATP luminescence, BT474, 72 h incubation; read-out: EC50 BT474 (72 h)
Remember, pEC50 is on a log scale: it is -log10 of the molar concentration.

COMPOUND	pEC50
Nc1ccc(C(=O)Nc2ccc3[nH]c(C(=O)N4C[C@@H](CCl)c5c4cc(O)c4ccccc54)cc3c2)cc1 [CBI, reference compound]	8.26

Okay, now this compound:
Challenge: Please tell me: pEC50 of COc1cccc2c1C(=O)c1c(O)c3c(c(O)c1C2=O)C[C@@](O)(C(=O)CO)C[C@@H]3O[C@H]1C[C@H](N)[C@H](O)[C@H](C)O1 [Dox, doxorubicin, reference compound] , system BT474?
Response given: 6.41

// provenance: patent US20130204033A1
